- Measured on: Human immunodeficiency virus type 1 reverse transcriptase (Human immunodeficiency virus 1, UniProt Q72547)
- Protocol description: Equilibrium binding constant at the active site of HIV-1 reverse transcriptase
- Assay type: functional
pKd: −log10 of the molar value.
Metric: pKd

>  <Compound>
Nc1ccn([C@@H]2CS[C@H](COP(=O)(O)OP(=O)(O)OP(=O)(O)O)O2)c(=O)n1 [LAMIVUDINE TRIPHOSPHATE]

>  <Value observed>
4.82

$$$$
>  <Compound>
Nc1ccn([C@@H]2C=C[C@H](COP(=O)(O)OP(=O)(O)OP(=O)(O)O)O2)c(=O)n1

>  <Value observed>
4.74

$$$$
>  <Compound>
Nc1nc(=O)n([C@@H]2CS[C@H](COP(=O)(O)OP(=O)(O)OP(=O)(O)O)O2)cc1F [EMTRICITABINE 5'-TRIPHOSPHATE]

>  <Value observed>
4.92

$$$$
>  <Compound>
Nc1nc(=O)n([C@@H]2C=C[C@H](COP(=O)(O)OP(=O)(O)OP(=O)(O)O)O2)cc1F

>  <Value observed>
4.51

$$$$
>  <Compound>
Nc1nc(=O)n([C@H]2O[C@@H](COP(=O)(O)OP(=O)(O)OP(=O)(O)O)C=C2F)cc1F

>  <Value observed>
4.19

$$$$

---

- Measured on: Human immunodeficiency virus type 1 reverse transcriptase (Human immunodeficiency virus 1)
- Protocol description: Rate of incorporation into a DNA primer directed by a DNA template at the active site of HIV-1 reverse transcriptase
- Assay type: functional
Sorting guide: entries reporting Kpol beneath 0.1 s⁻¹ go in the yes pile, the rest go in the no pile.

>  <Compound>
Nc1nc(=O)n([C@H]2O[C@@H](COP(=O)(O)OP(=O)(O)OP(=O)(O)O)C=C2F)cc1F

>  <Cat>
no

$$$$
>  <Compound>
Nc1nc(=O)n([C@@H]2CS[C@H](COP(=O)(O)OP(=O)(O)OP(=O)(O)O)O2)cc1F [EMTRICITABINE 5'-TRIPHOSPHATE]

>  <Cat>
yes

$$$$
>  <Compound>
Nc1ccn([C@@H]2C=C[C@H](COP(=O)(O)OP(=O)(O)OP(=O)(O)O)O2)c(=O)n1

>  <Cat>
no

$$$$
>  <Compound>
Nc1ccn([C@@H]2CS[C@H](COP(=O)(O)OP(=O)(O)OP(=O)(O)O)O2)c(=O)n1 [LAMIVUDINE TRIPHOSPHATE]

>  <Cat>
yes

$$$$
>  <Compound>
Nc1nc(=O)n([C@@H]2C=C[C@H](COP(=O)(O)OP(=O)(O)OP(=O)(O)O)O2)cc1F

>  <Cat>
no

$$$$
